Task for the reader: assign each of the following compounds its reported growth.
Test system: MOLT-4 leukemia
Experiment: NCI-60 one-dose screen, 48 h (100 = growth as untreated, 0 = no growth, -100 = all killed)
Conditions: 10 µM unless noted
The panel holds about 83,000 compounds, 20% with a hit somewhere; the sample as a whole holds those more often.
Form entry: value (%) — number only.

For the compound `COc1ccc(-c2nc3sc(C)nn3c2-c2nc3cc(C)c(C)cc3[nH]2)cc1` , what growth is on record?
78.1

I have this compound here, `CN1CCN(c2ccc3nc(-c4ccc5nc(-c6ccc(C(F)(F)F)cc6)[nH]c5c4)[nH]c3c2)CC1` , and I need its recorded growth.
47.2

May I ask what growth has been recorded for `CC(=O)OC[C@]1(C)C=C2C(=O)[C@](C)(O)C3(CC3)C(C)=C2[C@H]1OC(C)=O` ?
109

====

Test system: K-562 leukemia
Test: NCI-60 one-dose screen, 48 h
Conditions: 10 µM unless noted
The panel holds about 83,000 compounds, 20% with a hit somewhere; the sample as a whole holds those more often. Active and inactive are the calls of the source. The calls were made as follows: active = growth percent below 10; inactive = the rest.
Choose one outcome from this list and give only that: 1.0 (active), 0.0 (inactive)

Which result was noted for this molecule in the test: `COc1nc2c(cc1S(=O)(=O)c1ccccc1)CCc1c-2cnn1-c1ccccc1Cl`
0.0

// outcome(item) with item = `COc1cc2cc(Oc3ccc(NC(=O)Nc4ccc(Cl)c(C(F)(F)F)c4)cc3)c(C)nc2cc1OCCN1CCCCC1`
1.0

Short answer needed: outcome of this test for `C=C1CC[C@@H]2[C@@](C)(CCC[C@]2(C)C(=O)O)[C@@H]1CC[C@H](CO)CCO` ?
0.0

What call does the record list for `Nc1c(Br)cc(Br)cc1-c1n[nH]c(=O)[nH]c1=O` ?
0.0

Tell me the assay call for `Fc1c[c-]c(-c2ccccn2)c(F)c1.Fc1c[c-]c(-c2ccccn2)c(F)c1.[Cl][Pt+].[Cl][Pt+].c1ccc([PH+](C[PH+](c2ccccc2)c2ccccc2)c2ccccc2)cc1` please.
0.0

Entry `C[C@@H](Oc1cc(-c2cnn(C3CC4(CNC4)C3)c2)cnc1N)c1c(Cl)ccc(F)c1Cl` : call = ?
1.0

Tell me the recorded outcome of this test for `Cc1ccc(-c2nnc(COc3ccc(-c4nnc(N)s4)cc3)o2)cc1` .
0.0

Hi team, can someone confirm the assay call for `Cc1nc2ccc(Cl)cc2n1C` ?
0.0

Field: outcome | Entry: `COc1ccc(/C=C(\C#N)c2cc3ccccc3n2C)cc1`
1.0

// outcome(item) with item = CCOC(=O)c1cnn(CC(O)c2ccc(F)cc2)c1NC(=O)Nc1ccccc1F (stereo not given)
0.0

Tell me the recorded outcome of this test for `c1ccc(-c2nc(N3CCOCC3)c3c4c(sc3n2)CCCCCC4)nc1` .
0.0

Outcome? `Cc1nn(-c2ccccc2)c2nc3nc4c(c(N)c3c(-c3ccc(Cl)cc3)c12)CCCC4`
0.0

Record request — test call for `COc1ccc(/C=C(\C#N)c2ccc(OC)cc2)cc1`
0.0

Fill in: this test's call for COc1cccc(C2CC(=O)Nc3cc4c(cc32)CCC4)c1OC (stereo not given) is ___
0.0

Assay outcome for N#CC1=C(N)Oc2cc(N)ccc2C1c1ccc(F)cc1 (stereo not given) : what was it?
0.0

====

Test system: SF-539 CNS
Test: NCI-60 one-dose screen, 48 h (100 = growth as untreated, 0 = no growth, -100 = all killed)
Details: 10 µM unless noted
Compounds without any hit were thinned out: in the full panel of roughly 83,000, 20% have a hit.
measurement_kind: growth (%)
Response body: numeric value in %, unit text excluded.

# input compound: `COc1ccc(/C=C(\C#N)c2cc3ccccc3n2C)cc1` ; wanted: its growth
-15.9

What does the record list as growth for CCCCCn1c(=N)n(CC(O)COc2cccc(C)c2)c2ccccc21 (stereo not given) ?
-14.7

Which growth is listed for `O=C(NCc1ccco1)C1CCN(S(=O)(=O)c2ccc(Cl)cc2)CC1` ?
80.9

I have this compound here, `CC(=O)Nc1ccc(Sc2ccc([N+](=O)[O-])o2)cc1` , and I need its recorded growth.
15.3

What measured growth goes with `Nc1nc2c(s1)CCc1c-2c(Br)n(Cc2ccccc2)c1Br` ?
93.4

====

Test system: OVCAR-8 ovarian
Assay: NCI-60 one-dose screen, 48 h (100 = growth as untreated, 0 = no growth, -100 = all killed)
Settings: 10 µM unless noted
About 83,000 compounds went through this panel and 20% of them were active in at least one assay; those are over-represented in the sample as a whole.
measurement_kind: growth (%)
Your answer is read as %, so omit the unit and give the number.

If you can, please state the reported growth value of `O=C(O)C[C@H](O)C[C@H](O)/C=C/c1c(C2CC2)nc2ccccc2c1-c1ccc(F)cc1` .
61.5

Need growth, item `COc1nc2c(cc1S(=O)(=O)c1ccccc1)CCc1c-2cnn1-c1cccc(Cl)c1`
81.8

Fill in the blank: the reported growth of `COc1cc(/C=C2\C(=O)Nc3ccccc32)cc(OC)c1O` is ____.
78.5

====

Test system: SNB-75 CNS
Assay: NCI-60 one-dose screen, 48 h (100 = growth as untreated, 0 = no growth, -100 = all killed)
Conditions: 10 µM unless noted
This is part of a sample that, as a whole, favours compounds with a hit. Of some 83,000 tested, about 20% had one in any assay. Calls of active or inactive are those of the source. How the source made its calls: active means growth percent below 10; inactive means the rest.
measurement_kind: growth

Recorded growth for `COc1ccccc1-n1c(SCc2cc(OC)c(OC)c(OC)c2)nc2ccc(Cl)cc2c1=O` , please?
-4.26% (active)

Quick one: growth of `O=C1/C(=C/c2ccccc2F)CNC/C1=C\c1ccccc1F` ?
32.5% (inactive)

// lookup growth for `CC(=O)Nc1ccccc1-c1n[nH]c(=O)[nH]c1=O`
90.3% (inactive)

GET /values?readout=growth&item= `Cn1c2c(cc(S(=O)(=O)c3ccccc3)c1=O)CCc1c-2cnn1-c1cccc(Cl)c1`
76.4% (inactive)

Need growth, item O=C(c1cnn2c1NC(c1ccc(F)cc1)C2)N1CCCCC1 (centres undefined)
84.8% (inactive)

Quick one: growth of `CCCCNNC(=O)c1ccc(Br)cc1` ?
61.1% (inactive)

Consider the molecule shown here: CC1=CN2C(=NC3=C(CCCC/C3=C\c3ccccc3)C2c2ccccc2)S1 (centres undefined) What is its recorded growth?
82.5% (inactive)

Which growth reading was recorded for the molecule `COc1ccc(-c2nc3sc(C)cn3c2/C=C/C(=O)c2cc(OC)c(OC)c(OC)c2)cc1` ?
55.8% (inactive)

Query: growth; subject: `O=C(O)CCN1CCN(c2cccc(Cl)c2)CC1`
84% (inactive)

Form field: reported growth of `Cc1ccccc1-n1nnc(C(=O)Nc2nc(-c3ccccc3)c(-c3ccccc3)s2)c1C`
5.92% [50 µM] (active)

Bench note: what growth did `Cc1nc2cc(Nc3nc(Nc4ccc(F)cc4)nc(N4CCCC4)n3)ccc2n1Cc1ccccc1` show?
-15.1% (active)

Reported growth for COc1cccc(C2C3=C(COC3=O)N(CCO)c3cc4c(cc32)CCC4)c1 (centres undefined) : what is it?
-19.2% (active)

What does the data say about its growth? Entry: `CCCCCCCCCCCCSC1=CC(=O)C=CC1=O`
44.9% (inactive)

Fill in: growth of `CCOC(=O)c1c(-c2cc(OC)c(OC)c(OC)c2)csc1N` is ___
84.2% (inactive)

Which growth reading was recorded for the molecule `COC(=O)[C@H]1CCCN1C(=O)[C@H]1CCCN1C(=O)[C@@H](Cc1c[nH]c2ccccc12)NC(=S)Nc1cc(C(F)(F)F)cc(C(F)(F)F)c1` ?
40.3% (inactive)

Could you tell me which growth is on file for `COc1ccc(Cn2c(Br)c3c(c2-c2cc(OC)c(OC)c(OC)c2)CCc2sc(N)nc2-3)cc1` ?
-0.745% (active)

Would you kindly share the measured growth for `COCCOC1=C(Cl)C(=O)c2ccccc2C1=O` ?
8.63% (active)

Suppose we examine the molecule `CC(=O)OC[C@]1(C)C=C2C(=O)[C@](C)(O)C3(CC3)C(C)=C2[C@H]1OC(C)=O` ; what growth value has been reported?
56.5% (inactive)

Please look up its growth: `CNc1ccc(Br)cc1-c1n[nH]c(=O)[nH]c1=O`
77.4% (inactive)

So what does the record say about growth for `O=C(c1ccc2ncc(-c3nc(NC4CC4)ncc3F)n2c1)N1CCOCC1` ?
-21.6% (active)

Which growth value is on record for `COc1cc(/C=C2\C(=O)N(c3c(Cl)cccc3Cl)c3ccccc32)cc(OC)c1O` ?
61.7% (inactive)

Look up growth for this molecule: `COc1cccc(Nc2nc(NCCO)c3ccccc3n2)c1`
63.7% (inactive)

Can you share its growth? I mean this molecule: `CN1CCn2c(c(Sc3ccc(C(=O)NO)cc3)c3ccccc32)C1=O`
-17.2% (active)

Need growth of `CC(=O)Nc1ccc(S(=O)(=O)N/N=C\c2ccc(Cl)c(Cl)c2)cc1` , thanks.
81.7% (inactive)

Which measured growth value corresponds to `O=C1/C(=C/c2ccc(Cl)cc2)CN(Cc2cn(CCCNc3ccnc4cc(Cl)ccc34)nn2)C/C1=C\c1ccc(Cl)cc1` ?
-4.46% (active)

Recorded growth of `Cc1nc2cc(Nc3nc(NCCO)nc(Nc4ccc(F)cc4)n3)ccc2n1Cc1ccccc1` , please.
102% (inactive)

growth lookup needed for `O=C(Nc1ccccc1O)c1ccc(NS(=O)(=O)c2cccc3cccnc23)cc1` , thanks.
48.5% (inactive)

Sample `COc1cc(NC(=O)COc2ccccc2)c(C(N)=O)cc1OC` — what was its growth?
17.9% (inactive)

Recorded growth of `COc1ccc(-n2ncc3c4nc(OC)c(S(=O)(=O)c5ccccc5)cc4ccc32)cc1` , please.
6.98% (active)

Reported growth for `COc1ccc2nc(-n3nc(C)cc3C)c(-n3nc(C)cc3C)nc2c1` : what is it?
116% (inactive)

growth lookup needed for NC1=NC(c2ccccc2OS(=O)(=O)c2ccc(Br)cc2)n2c(nc3ccccc32)N1 (centres undefined) , thanks.
80.2% (inactive)

Could you tell me which growth is on file for `O=C1C(Br)=C(c2ccccc2)C(=O)C(Br)=C1c1ccccc1` ?
78% (inactive)

Item `O=C1c2cc(S(=O)(=O)O)ccc2C(=O)c2c1cccc2[N+](=O)[O-]` has what recorded growth?
110% (inactive)

Need growth of `Cc1nc2cc(Nc3nc(Nc4ccc(F)cc4)nc(-c4cccs4)n3)ccc2n1Cc1ccccc1` , thanks.
52.2% (inactive)

Fill in the blank: the reported growth of `Fc1ccccc1Nc1ccc2nnc(-c3ccncc3)n2n1` is ____.
101% (inactive)

Bench note: what growth did `COc1ccc(C(=O)COc2cccc(/C=C3\CSc4ccc(C)cc4C3=O)c2)cc1` show?
95% (inactive)

Reported growth for `COc1ccc(-c2nn(-c3ccc(NC(=O)c4ccc(Cl)c(Cl)c4)cc3)cc2-c2ccncc2)cc1Cl` : what is it?
59.4% (inactive)

I am curious: what growth value has been reported for `Cc1nc2cc(Nc3nc(NCCN)nc(Nc4ccc(F)cc4)n3)ccc2n1Cc1ccccc1` ?
84.2% (inactive)

# lookup: growth of `Nc1nc(-c2ccnc(Cl)c2)nn1-c1nc2ccccc2s1`
103% (inactive)

Entry source: PubChem BioAssay (NCI)
